test_method_notes: solvent given as SMILES
run_conditions: in CCOCC
result_type: emission maximum (nm)
Answers are plain numbers, in nm.

• CN(C)c1ccc(-c2cc(-c3ccc(C#N)cc3)nn2C)cc1 = 429
• Nc1cc(N)cc(-c2nc3ccccc3s2)c1 = 457

Give measured emission maximum for every item shown.
1. O=C1c2ccccc2C(=O)N1c1ccc(Cn2cncn2)cc1
2. c1ccc(N2c3ccccc3Sc3cc(-c4cccc5nc6ccccc6cc45)ccc32)cc1
3. c1ccc(N(c2ccccc2)c2ccc(-c3cccc4nc5ccccc5cc34)cc2)cc1
4. COC(=O)C(Cc1ccc2oc(-c3ccc(-n4c5ccccc5c5ccccc54)cc3)nc2c1)NC(=O)OC(C)(C)C (stereo not given)
5. O=c1c(Nc2ccccc2)c([O-])c1=[NH+]c1ccccc1

339
549
507
402.32
484

// each compound listed below needs its emission maximum
1. CC(C)(C)c1ccc(-c2nc3c4ccc(-c5ccc6ccc7cccc8ccc5c6c78)cc4c4cc(-c5ccc6ccc7cccc8ccc5c6c78)ccc4c3n2-c2ccc(C(C)(C)C)cc2)cc1
2. CN(C)c1ccc(C(=O)Nc2cccc(Cl)c2)cc1
3. COc1ccc2c3c(cccc13)C(=O)c1ccccc1-2

1. 432
2. 445
3. 498.01

----------
test_method_notes: solvent given as SMILES
run_conditions: in C1CCOC1
result_type: emission maximum (nm)
Numbers only, in nm.

Please state, for each entry, its recorded emission maximum.
1. Cc1ccc(-c2cnc3nn4ccccc4c3n2)cc1
2. CCCCCCCCC1(CCCCCCCC)c2cc(-c3ccc(C(F)(F)F)cc3)ccc2-c2ccc(N(c3ccc(-n4c5ccccc5c5ccccc54)cc3)c3ccc4c(c3)C(CCCCCCCC)(CCCCCCCC)c3cc(-c5ccc(C(F)(F)F)cc5)ccc3-4)cc21
3. N#Cc1ccc2cc[nH]c2c1
4. c1ccc(-c2cc(-c3ccc4ccc5c(-c6ccnc(-c7ccccn7)c6)ccc6ccc3c4c65)ccn2)nc1

450
455
345
408

----------
test_method_notes: solvent given as SMILES
run_conditions: in CN(C)C=O
result_type: emission maximum (nm)
One number for each entry, in nm.

The following compounds have reported results that may help.
• CCN(CC)c1ccc2c(-c3ccccc3C(=O)[O-])c3ccc(=[N+](CC)CC)cc-3oc2c1 = 588
• CCN(CC)c1ccc(/C=N/C2CCCCC2/N=C/c2ccc(N(CC)CC)cc2O)c(O)c1 (stereo not given) = 432
• COC(=O)C(Cc1ccc2oc(-c3ccc(-n4c5ccccc5c5ccccc54)cc3)nc2c1)NC(=O)OC(C)(C)C (stereo not given) = 438.02
• CCN(CC)c1ccc2cc(/C=C/C(=C(C#N)C#N)c3ccc(N(c4ccccc4)c4ccccc4)cc3)c(=O)oc2c1 = 636
• COCCOCCOc1ccc(OCCOCCOC)c(C=O)c1 = 424

Please look at the items below and tell me emission maximum for each one, in order.
1. CCN(CC)c1ccc(/C=C2\CC/C(=C\c3ccc(N(c4ccc(/C=C5\CC/C(=C\c6ccc(N(CC)CC)cc6)C5=C(C#N)C#N)cc4)c4ccc(/C=C5\CC/C(=C\c6ccc(N(CC)CC)cc6)C5=C(C#N)C#N)cc4)cc3)C2=C(C#N)C#N)cc1
2. CCN(CC)c1ccc(/C=N/c2ccccc2/N=C/c2ccc(N(CC)CC)cc2O)c(O)c1

720
573

# batch size: 6; output emission maximum per entry
1. COCCOCCOc1cc(C=O)c(OCCOCCOC)cc1C=O
2. CCCCCC(CC)C1(C(CC)CCCCC)c2ccccc2-c2ccc(C#Cc3cc(C#Cc4ccc5c(c4)C(C(CC)CCCCC)(C(CC)CCCCC)c4ccccc4-5)c4ccc5c(C#Cc6ccc7c(c6)C(C(CC)CCCCC)(C(CC)CCCCC)c6ccccc6-7)cc(C#Cc6ccc7c(c6)C(C(CC)CCCCC)(C(CC)CCCCC)c6ccccc6-7)c6ccc3c4c65)cc21 (stereo not given)
3. [C-]#[N+]c1ccc(-c2ccc(N)cc2)cc1
4. CCN(CC)c1ccc2c(-c3ccc(S(=O)(=O)[O-])cc3S(=O)(=O)[O-])c3ccc(=[N+](CC)CC)cc-3oc2c1
5. CN(C)c1ccc(/C=C2\CC/C(=C\c3ccc(N(C)C)cc3)C2=O)cc1
6. Nc1ccc2c(c1)C(=O)NC2=O

466
518
423
574
575
470

Provide emission maximum for all items below, preserving their order.
1. CCCCCCOc1ccc(C#Cc2ccc(C#CC#Cc3ccc(C#Cc4ccc(OCCCCCC)c(OCCCCCC)c4)c4nsnc34)c3nsnc23)cc1OCCCCCC
2. CC1=NN(c2ccccc2)C(=O)/C1=C/c1cn(-c2ccccc2)nc1-c1ccccc1
3. COC(=O)C(Cc1ccc2oc(-c3ccc(N(c4ccccc4)c4ccccc4)cc3)nc2c1)NC(=O)OC(C)(C)C (stereo not given)
4. CC(C)(C)c1ccc(-c2nc3c4ccc(-c5ccc6ccc7cccc8ccc5c6c78)cc4c4cc(-c5ccc6ccc7cccc8ccc5c6c78)ccc4c3n2-c2ccc(C(C)(C)C)cc2)cc1
5. COc1ccc(-c2csc(-c3ccncc3)n2)cc1
6. CCn1c2ccccc2c2cc(C#Cc3cc(C#Cc4ccc5c(c4)c4ccccc4n5CC)ncn3)ccc21

638
435
461.75
459
451
502

For every record below, what is its emission maximum?
1. CN(C)c1cccc2c1ccc1c(=O)oc(-c3ccc(C(F)(F)F)cc3)cc12
2. N#Cc1c(-c2ccccc2)cc(-c2ccccc2)[nH]c1=S
3. O=S(=O)(c1ccc(-c2ccc3c(c2)c2ccccc2n3-c2ccccc2)cc1)c1ccc(-c2ccc3c(c2)c2ccccc2n3-c2ccccc2)cc1
4. CCN(CC)c1ccc(/C=N/CC/N=C/c2ccc(N(CC)CC)cc2O)c(O)c1
5. CCN(CC)c1ccc(-c2nc(Oc3ccc(-c4nc5ccccc5[nH]4)cc3)nc(Oc3ccc(-c4nc5ccccc5[nH]4)cc3)n2)cc1

1: 614; 2: 505; 3: 431.81; 4: 433; 5: 431

Please state, for each entry, its recorded emission maximum.
1. CCCCn1c2ccc(/C=C(\C#N)c3ccc([N+](=O)[O-])cc3)cc2c2cc(Cn3c(-c4ccc5c(c4)c4ccccc4n5CCCC)nc4ccccc43)ccc21
2. COc1ccc(-c2nc3ccccc3nc2-c2ccc(OC)cc2)cc1
3. O=C1Nc2ccccc2/C1=C/C(=O)c1ccccc1
4. O=S(=O)([O-])c1ccc(/C=C/c2ccc(-c3nnc(-c4ccc(/C=C/c5ccc(S(=O)(=O)[O-])cc5S(=O)(=O)[O-])cc4)o3)cc2)c(S(=O)(=O)[O-])c1
5. CCCCCCCCN1c2ccccc2Sc2cc(/C=C/c3ccc(N(c4ccc(/C=C/c5ccc6c(c5)Sc5ccccc5N6CCCCCCCC)cc4)c4ccc(/C=C/c5ccc(/C=C/c6ccc(N(c7ccc(/C=C/c8ccc9c(c8)Sc8ccccc8N9CCCCCCCC)cc7)c7ccc(/C=C/c8ccc9c(c8)Sc8ccccc8N9CCCCCCCC)cc7)cc6)c6nsnc56)cc4)cc3)ccc21
6. O=C1/C(=C2\Sc3ccc(S(=O)(=O)Nc4ccccc4)cc3C2=O)Sc2ccc(S(=O)(=O)Nc3ccccc3)cc21

1: 581; 2: 432; 3: 404; 4: 430; 5: 750; 6: 604

----------
test_method_notes: solvent given as SMILES
run_conditions: in CC(C)O
result_type: emission maximum (nm)
Numbers only, in nm.

- CC(C)CCCCN1CCc2c1ccc1c3c(ccc21)C(=O)CCC3: 512
- COC(=O)C(Cc1ccc2oc(-c3ccc(N(c4ccccc4)c4ccccc4)cc3)nc2c1)NC(=O)OC(C)(C)C (configuration not stated): 455.75
- CCN(CC)c1ccc(OC)c(C=O)c1: 600
- CN(C)c1ccc2c3c(ccc2c1)CCCC3=O: 520
- COc1ccc2c3c(cccc13)C(=O)c1ccccc1-2: 541.13

Provide the reported emission maximum of each entry below, same order.
1. COCCOCCOc1cc(C=O)c(OCCOCCOC)cc1C=O
2. Oc1ccccc1/N=C/c1ccccc1Oc1ccccc1
3. CN(C)c1ccc(/C=C2\CC/C(=C\c3ccc(N(C)C)cc3)C2=O)cc1
4. COCCOCCOc1ccc(OCCOCCOC)c(C=O)c1
5. Nc1ccc2c(c1)C(=O)NC2=O
6. CC(=O)c1ccc(-c2nc3ccc(N(C)C)cc3s2)cc1
7. N#Cc1ccc2cc[nH]c2c1

1: 481; 2: 406; 3: 590; 4: 454; 5: 505; 6: 611.34; 7: 356

----------
Record form. Attribute: emission maximum. Fill in for each entry.
test_method_notes: solvent given as SMILES
run_conditions: in O=P(c1ccccc1)(c1ccccc1)c1ccccc1Oc1ccccc1P(=O)(c1ccccc1)c1ccccc1
Give bare numbers, in nm.

Below are worked cases with known answers.
• CC1(C)c2ccccc2N(c2ccccc2)c2ccc(-c3nc(-c4ccccc4)nc(-c4ccccc4)n3)cc21 = 452
• O=S1(=O)c2ccccc2Oc2cc(N3c4ccccc4C4(c5ccccc53)c3ccccc3N(c3ccc5c(c3)Oc3ccccc3S5(=O)=O)c3ccccc34)ccc21 = 464.9
• F[B-]1(F)Oc2ccccc2-c2cc(-n3c4ccccc4c4ccccc43)cc[n+]21 = 475
• N#Cc1cccc(C#N)c1-n1c2ccccc2c2cc(-c3ccc4c(c3)c3ccccc3n4-c3c(C#N)cccc3C#N)ccc21 = 488
• Cc1cc(-n2c3ccccc3c3cc4c(cc32)C2c3ccccc3C4c3ccccc32)c(C)cc1-c1nc(-c2ccccc2)nc(-c2ccccc2)n1 = 442
• CC1(C)c2ccccc2-n2c(-c3ccc(-n4c5ccc(-n6c7ccccc7c7ccccc76)cc5c5cc(-n6c7ccccc7c7ccccc76)ccc54)cc3)nc3cccc1c32 = 409

Now examine the next entry.
Which emission maximum reading was recorded for the molecule "c1ccc(-c2ccc(-c3nc(-n4c5ccccc5c5ccc6c7ccccc7n(-c7ccccc7)c6c54)nc(-n4c5ccccc5c5ccc6c7ccccc7n(-c7ccccc7)c6c54)n3)cc2)cc1" ?
492

Just for reference, the Deep4Chem optical property database is where these values come from.
